- measured-on: MMP-9 (Homo sapiens, UniProt P14780)
- Construct: purchased SIGMA PF024
- Sequence (P14780 94-707): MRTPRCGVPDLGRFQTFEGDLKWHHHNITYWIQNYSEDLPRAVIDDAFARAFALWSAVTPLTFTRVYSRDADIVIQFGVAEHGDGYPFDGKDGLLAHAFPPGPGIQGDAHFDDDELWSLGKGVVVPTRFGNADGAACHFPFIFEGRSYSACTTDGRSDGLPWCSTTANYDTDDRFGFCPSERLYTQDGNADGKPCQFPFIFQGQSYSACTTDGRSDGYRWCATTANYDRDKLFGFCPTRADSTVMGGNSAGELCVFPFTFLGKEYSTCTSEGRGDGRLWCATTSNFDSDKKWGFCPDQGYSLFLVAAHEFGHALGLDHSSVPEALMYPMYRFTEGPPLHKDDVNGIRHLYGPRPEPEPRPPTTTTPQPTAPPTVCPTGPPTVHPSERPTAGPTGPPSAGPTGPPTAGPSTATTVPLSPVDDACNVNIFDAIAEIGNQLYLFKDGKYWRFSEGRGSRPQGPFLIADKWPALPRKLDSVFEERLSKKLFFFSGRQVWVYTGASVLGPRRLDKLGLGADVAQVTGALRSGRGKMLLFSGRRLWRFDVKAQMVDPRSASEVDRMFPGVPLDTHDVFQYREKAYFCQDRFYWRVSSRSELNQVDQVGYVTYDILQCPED
- assay-comment: FRET peptide cleavage efficiency with MMP-9 (standard pH 7.5; also pH 6.5)
- Format: biochemical
- test-parameters: t = 60 min (Table 9)
Square brackets hold non-standard residues; d marks the D form. Ends that are not written are not given here. Tyr(3-NO2) = N[C@@H](Cc1ccc(O)c([N+](=O)[O-])c1)C(=O)O; 2Abz = Nc1ccccc1C(=O)O
Criterion: % cleavage MMP-9 t = 60 min meeting or surpassing 90%. Met: T. Not met: F.

Known results for substances:
                                  substance  assigned_class
0  RGRRVANLVG ([2Abz]RGRRVANLVG[Tyr(3-NO2)]-NH2) [LNK033]               T
1  RGRKSPYMLQG ([2Abz]RGRKSPYMLQG[Tyr(3-NO2)]-NH2) [LNK037]               T

stdin: Form field: % cleavage MMP-9 t = 60 min at least 90%? Entry: RGRRVANYFGKL ([2Abz]RGRRVANYFGKL[Tyr(3-NO2)]-NH2) [LNK055]
stdout: F

stdin: Form field: % cleavage MMP-9 t = 60 min at least 90%? Entry: GSGSGSGS ([2Abz]GSGSGSGS[Tyr(3-NO2)]-NH2) [LNK064]
stdout: F

stdin: Form field: % cleavage MMP-9 t = 60 min at least 90%? Entry: RGRRGP ([2Abz]RGRRGP[Tyr(3-NO2)]-NH2) [LNK048]
stdout: F

stdin: Form field: % cleavage MMP-9 t = 60 min at least 90%? Entry: RGRRPLGLAGGSG ([2Abz]RGRRPLGLAGGSG[Tyr(3-NO2)]-NH2) [LNK051]
stdout: T
